All values here come from PubChem BioAssay.

- System Tested: Receptor tyrosine-protein kinase erbB-2 (Homo sapiens)
- Experiment Notes: reducers of endogenous Her2 protein level, primary screen, SKBR3 breast tumor cells, AlphaScreen, ATP viability (AID 461);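 also: lower value means less Her2 protein in the cells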
- Experimental Conditions: 18-24 h, at 10 µM, stronger effect = lower value
Recorded Endpoint: Her2 level (%)
Could you give me the number in %? Just the number is fine.

These recorded examples may help you get a feel for the data.
Which measured Her2 level value corresponds to O=C(CSc1nnc(-c2ccncc2)n1-c1ccc(F)cc1)NC(=O)NCc1ccco1 ?
89

Any idea what its Her2 level is? The compound is CC1(CC(=O)O)C(=O)N=C2C=CC=CN21 (stereo unspecified)
87.5

Next:
Would you kindly share the measured Her2 level for O=C(Cn1ncc2ccccc21)N1CCN(c2cccc(C(F)(F)F)c2)CC1 ?
94.5

Requested field: Her2 level. Item: Cn1c(=O)[nH]c(=O)c2[nH]c(CN3CCN(C(=O)c4ccco4)CC3)nc21
80

Reported Her2 level for O=c1oc2ccccc2c2nccnc12 : what is it?
115

Sample CCC(C)OC(=O)n1ccc(C(=O)Nc2nccs2)n1 (stereo unspecified) — what was its Her2 level?
84
